assay: NCI Yeast Anticancer Drug Screen. Data for the bub3 strain (AID 167); conditions: S. cerevisiae bub3 mutant strain, at 5.0 µM (retest, dose inferred, filed as 0.5), stronger effect = higher value
The panel holds about 79,000 compounds, 15% with a hit somewhere; the sample as a whole holds those more often.
Reported growth inhibition values are given for each entry in this list.

compound	growth inhibition / %
CCCCCCCCCCCCCCCCCC[N+](C)(C)Cc1ccc(C[N+](C)(C)CCCCCCCCCCCCCCCCCC)cc1	-4
CCOC(=O)CC1(C)C(=O)CCCC1=O	-5
CCN(CC)CCCCCCNc1cc(C)cc2cccnc12	14
CCCOC(=O)C#CC(=O)OCCC	25
COc1ccc(C2NCc3c(sc4c3CCCC4)-n3cccc32)cc1 (configuration not stated)	0
C(=C\c1cccc2ccccc12)/c1ccncc1	4
CCCN(CCC)C(=O)C(C)C	-2
N#CCCN(CCC#N)c1ccc(C(Sc2ccccc2)C(NC(=O)c2cc([N+](=O)[O-])ccc2Cl)C(=O)Sc2ccccc2)cc1 (configuration not stated)	22
Cc1ccc(C2(C)CC/C(=N/O)c3cc(C)c(C)cc32)cc1C (configuration not stated)	80
COc1ccc2ccccc2c1Cc1c(OC)ccc2ccccc12	-5
CC1(C)[C@H]2CC[C@]1(C)[C@H](OC(=O)NNC(=O)O[C@@H]1C[C@@H]3CC[C@@]1(C)C3(C)C)C2	35
CC(CCC(=O)O)[C@H]1CCC2[C@H]3C(CC[C@@]21C)[C@@]1(C)CCC(O)C[C@H]1C[C@@H]3O (some centres not stated)	-13
O=Cc1[nH]c(=S)[nH]c(=O)c1Cc1cccc2ccccc12	-19
CCOC(=O)C(C)(C)C	2
CCCCNCCC(SSSC(CCNCCCC)c1ccc(Cl)cc1)c1ccc(Cl)cc1 (configuration not stated)	25
CN(/N=C/c1ccc([N+](=O)[O-])o1)C(N)=O	6
CS(=O)(=O)OCCN(CCOS(C)(=O)=O)c1ccc(C=Nc2ccc(-c3csc(-c4ccc(Cl)cc4)n3)cc2)cc1	1

###

assay: NCI Yeast Anticancer Drug Screen. Data for the mec2-1 strain (AID 157); details: S. cerevisiae mec2-1 strain, at 5.0 µM (retest, dose inferred, filed as 0.5), stronger effect = higher value
This is part of a sample that, as a whole, favours compounds with a hit. Of some 79,000 tested, about 15% had one in any assay.

molecule	measureUnit	growth inhibition
Nc1ccc(N=Nc2ccccc2)c2ccccc12	%	0
CCOC(=O)CC1(C)C(=O)CCCC1=O	%	-2
CC(C)(C)C1CCC2c3c([nH]c4ccccc34)C3C(=O)N(c4ccc(C(=O)O)cc4)C(=O)C3C2C1 (stereo not given)	%	99
Cc1ccc[n+](CC(=O)C2CCC3C4CC=C5CC(O)CCC5(C)C4CCC23C)c1 (stereo not given)	%	1
Nc1ncnc2nn(C3OC(CO)C(O)C3O)nc12 (stereo not given)	%	2
CCCCCN(CCCCC)C(C)C(=O)c1ccc2cc(Br)c3ccccc3c2c1 (stereo not given)	%	9
CC1=C(C(=O)NCc2ccccc2)C(c2ccccc2[N+](=O)[O-])C(C(=O)NCc2ccccc2)=C(C)N1	%	9
CC(C)NC(=O)OCc1c(CO)c2c(n1C)-c1ccccc1CC2	%	-4
CO/C(=N\N=C(/c1ccccc1)C(F)(F)F)c1ccncc1	%	0
O=C(O)/C=C/c1ccc2c(c1)CC1(Cc3ccccc3C1)C2	%	40
CCO/N=C1\CCCCC1SS(=O)(=O)O (stereo not given)	%	7
CC(C)(C)NC(=S)N/N=C/c1ccccc1O	%	25
O=[N+]([O-])c1ccc2nc(-c3ccccn3)[nH]c2c1	%	1
C(/Cc1ccc2c(c1)OCO2)=N\NC1=NCCCCN1	%	-3
O=C1/C(=C/c2cccc(O)c2)SC(=S)N1/C=C\c1nc2ccccc2[nH]c1=O	%	-8
O=c1c(Cl)cc2nc3ccccc3sc-2c1Cl	%	42
CCN(CC)CCCCCCNc1cc(C)cc2ccc(C)nc12	%	0
COc1ccc(Cc2nc3ccc(Cl)cc3[nH]2)cc1	%	-4
CCOC(=O)C1=C(Nc2ccc(Cl)c(Cl)c2)OC/C1=N\NS(=O)(=O)c1ccc(C)cc1	%	15
c1ccc2c(c1)Cc1cc3ccccc3nc1-2	%	18
COc1ccc2nc3cccc([N+](=O)[O-])c3c(NCCN(C)C)c2c1	%	95
O=CC(O)C(O)C(O)C(O)C(=O)NCCCCCCCCCCCCNC(=O)C(O)C(O)C(O)C(O)C=O (stereo not given)	%	20
O=C(Nc1cccc(Cl)c1)OCCOC(=O)Nc1cccc(Cl)c1	%	3
CN(C)CCCNc1c2ccccc2nc2ccc(F)cc12	%	-8
Cc1cc(N(CCCOS(C)(=O)=O)CCCOS(C)(=O)=O)ccc1C=Nc1cc(Br)c(O)c(Br)c1	%	36
COc1cc(CC(=O)O)c(Cc2ccc3c(c2)Cc2ccccc2-3)cc1OC	%	4
Cc1ccc(NC(=S)SCc2ccc(Cl)cc2)cc1C	%	-5
Cn1c2nc(-[n+]3ccccc3)nc-2c([O-])n(C)c1=O	%	3
C[Si](C)(CCC(=O)O)O[Si](C)(C)CCC(=O)O	%	-4
CCOC(=O)CC(N)CC(=O)OCC	%	-47
O=C(Nc1c(Cl)cc([N+](=O)[O-])cc1Cl)/C(=N\Nc1cccc(Cl)c1)c1c(O)c2ccccc2oc1=O	%	25
C=CCOc1ccc(C2(c3ccc(OCC=C)cc3)C(=O)Nc3ccccc32)cc1	%	-8
CCCc1cc2c(cc1COc1ccccc1C(=O)O)OCO2	%	-4
Nc1ncnc2c1cnn2C1CCCCC1	%	-2
O=C(/C=N/O)Nc1ccc(Cl)c(I)c1	%	-15
O=C(O)c1ccc(NCc2c(O)ccc3ccccc23)cc1	%	9
Oc1ccc(-c2ccc3ccccc3c2)cc1	%	6
Cc1cc(=O)n(-c2cc3cccccc-3n2)[nH]1	%	2
OCC1(c2ccccc2)OC1c1ccccc1 (stereo not given)	%	-50
O=c1cc(N=Nc2ccc(Cl)c(Cl)c2)[nH]c(=O)[nH]1	%	25
CCc1ccc(/C=C/C(=O)C2CN(CC)CCC2(O)/C=C/c2ccc(CC)cc2)cc1 (stereo not given)	%	2
O=C(CC(c1cccnc1)C(C(=O)c1ccc(Cl)cc1)C(CC(=O)c1ccc(Cl)cc1)c1cccnc1)c1ccc(Cl)cc1 (stereo not given)	%	48
CC(C)c1cccc(O)c1O	%	-7
CCOC(=O)/C(=C\N1C(=O)/C(=C\C(C)=C\c2ccccc2)SC1=S)C(=O)c1ccccc1	%	-10
N#CC(/C=C/c1ccccc1)(NO)Nc1cccc(Cl)c1 (stereo not given)	%	32
